Catalogue of compounds with associated Dmax at 2 µM
TARGET DESC: MycC Protein (Homo sapiens, UniProt P01106)
Construct: endogenous in cells; host or cells: HL-60 or SKNBE2
Sequence (P01106 whole entry): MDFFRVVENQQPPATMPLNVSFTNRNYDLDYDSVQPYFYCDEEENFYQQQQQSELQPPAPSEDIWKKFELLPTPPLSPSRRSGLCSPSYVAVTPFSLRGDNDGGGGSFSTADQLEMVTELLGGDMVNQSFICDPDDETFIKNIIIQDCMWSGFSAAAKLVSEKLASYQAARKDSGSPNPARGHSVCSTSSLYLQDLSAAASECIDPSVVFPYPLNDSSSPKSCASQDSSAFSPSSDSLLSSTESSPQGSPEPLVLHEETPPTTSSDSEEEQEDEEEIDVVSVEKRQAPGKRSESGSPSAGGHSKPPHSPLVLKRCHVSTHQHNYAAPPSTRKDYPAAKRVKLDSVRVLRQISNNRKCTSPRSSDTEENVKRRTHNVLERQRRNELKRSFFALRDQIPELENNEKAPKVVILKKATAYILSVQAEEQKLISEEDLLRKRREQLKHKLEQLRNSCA
ASSAY SUMMARY: Degradation of MycC protein, Western blot band density in cells
Assay type: cell-based
CONDITION INFO: HL-60 or SKNBE2 cells; 6 uL of compound (1 mM) added to 3 mL cells; 6 hours; Western blot band density (ImageJ)

[
  {
    "COMPOUND": "O=C(NC1CCS(=O)(=O)CC1)N[C@H]1CC[C@H](Nc2nccc(Nc3cc(C4CCCC4)[nH]n3)n2)CC1",
    "Dmax at 2 µM": "20 to 49%"
  },
  {
    "COMPOUND": "O=C(NC1CCCS(=O)(=O)C1)N[C@H]1CC[C@H](Nc2nccc(Nc3cc(C4CCCC4)[nH]n3)n2)CC1 (stereo partly drawn)",
    "Dmax at 2 µM": "< 20%"
  },
  {
    "COMPOUND": "CN(c1nccc(Nc2cc(C3CCC(F)(F)C3)[nH]n2)n1)[C@H]1CC[C@H](NC(=O)NC2Cc3ccc(C#N)cc3C2)CC1 (stereo partly drawn)",
    "Dmax at 2 µM": "< 20%"
  },
  {
    "COMPOUND": "Cc1cc(Nc2ccnc(N[C@H]3CC[C@H](NC(=O)NC4CCN(Cc5ccccn5)CC4)CC3)n2)n[nH]1",
    "Dmax at 2 µM": "< 20%"
  },
  {
    "COMPOUND": "FC(F)(F)C/N=C(\\NC1CCOCC1)N[C@H]1CC[C@H](Nc2nccc(Nc3cc(C4CCCC4)[nH]n3)n2)CC1",
    "Dmax at 2 µM": "< 20%"
  },
  {
    "COMPOUND": "O=C(NC1CC2(COC2)C1)N[C@H]1CC[C@H](Nc2nccc(Nc3cc(C4CCCC4)[nH]n3)n2)CC1",
    "Dmax at 2 µM": "< 20%"
  },
  {
    "COMPOUND": "O=C(Nc1cccc(C(F)(F)F)c1)N[C@H]1CC[C@@H](Nc2nccc(Nc3cc(C4CCCC4)[nH]n3)n2)CC1",
    "Dmax at 2 µM": "50 to 79%"
  },
  {
    "COMPOUND": "Cc1cc(Nc2ccnc(N[C@H]3CC[C@H](NC(=O)NC4CCN(C(=O)C5CC5)CC4)CC3)n2)n[nH]1",
    "Dmax at 2 µM": "< 20%"
  },
  {
    "COMPOUND": "Cc1nc(-c2ccc3c(c2)CC(NC(=O)N[C@H]2CC[C@H](Nc4nccc(Nc5cc(C6CCCC6)[nH]n5)n4)CC2)C3)no1 (stereo partly drawn)",
    "Dmax at 2 µM": "80 to 100%"
  },
  {
    "COMPOUND": "C/N=C(\\Nc1cccc(C(F)(F)F)c1)N[C@H]1CC[C@H](Nc2nccc(Nc3cc(C)[nH]n3)n2)CC1",
    "Dmax at 2 µM": "< 20%"
  },
  {
    "COMPOUND": "CC(=O)N1CC(NC(=O)N[C@H]2CC[C@H](Nc3nccc(Nc4cc(C5CCCC5)[nH]n4)n3)CC2)C1",
    "Dmax at 2 µM": "20 to 49%"
  },
  {
    "COMPOUND": "CS(=O)(=O)N1CC(NC(=O)N[C@H]2CC[C@H](Nc3nccc(Nc4cc(C5CCCC5)[nH]n4)n3)CC2)C1",
    "Dmax at 2 µM": "20 to 49%"
  }
]
